measurement-protocol: qHTS of pediatric cancer cell lines to identify multiple opportunities for drug repurposing: Primary screen for SK-N-SH cells (AID 1347098); further: nearly all actives have a fitted effect of over 65% in size
recorded-conditions: SK-N-SH viability, CellTiter-Glo luminescence, 48 h; series mostly up to 57 µM
Inconclusive results are not listed. Activity calls are given as the source filed them. The call rests on the fitted dose curve; in most records, active means well fitted cell-killing curve with a large enough effect; inconclusive means small, poorly fitted or top-dose-only effect; inactive means no such curve, though single readings can be large or run the other way.
Would you mind answering with one of these outcomes? active, inactive

Worked examples, 5 molecules total:
INSERT INTO measurements (molecule, class) VALUES
  ('CCOC(=O)Nc1ccc(NCc2ccc(F)cc2)nc1N', 'inactive'),
  ('CS(=O)(=O)CCNCc1ccc(-c2ccc3ncnc(Nc4ccc(OCc5cccc(F)c5)c(Cl)c4)c3c2)o1', 'active'),
  ('CN(C)CCC=C1c2ccccc2C=Cc2ccccc21', 'active'),
  ('CC(C)C(=O)Nc1ccc([N+](=O)[O-])c(C(F)(F)F)c1', 'active'),
  ('C[C@H]1c2cccc(O)c2C(O)=C2C(=O)[C@]3(O)C(O)=C(C(N)=O)C(=O)[C@@H](N(C)C)[C@@H]3[C@@H](O)[C@@H]21', 'inactive');

Tell me the assay call for Cc1cc(C(C)(C)C)c(O)c(C)c1CC1=NCCN1 please.
inactive

Call for entry Cc1cnc(C(=O)NCCc2ccc(S(=O)(=O)NC(=O)NC3CCCCC3)cc2)cn1 :
inactive

Lab log entry: CN(C)CCOC(c1ccccc1)c1ccccc1 — outcome as called in the assay?
inactive

Could you check what this test reported for CC#C[C@]1(O)CC[C@H]2[C@@H]3CCC4=CC(=O)CCC4=C3[C@@H](c3ccc(N(C)C)cc3)C[C@@]21C ?
active

Give the logged outcome of this assay for the following molecule: CN(C)c1nc(N(C)C)nc(N(C)C)n1
inactive

Each molecule tested received a call. Report the one for CN1CCN2c3ccccc3Cc3ccccc3C2C1 (configuration not stated) .
inactive

Which result was noted for this molecule in the test: CCCNCC(O)COc1ccccc1C(=O)CCc1ccccc1 (configuration not stated)
active

For COc1ccc(C2CNC(=O)C2)cc1OC1CCCC1 (configuration not stated) , what call appears in the results of this test?
inactive

Given Nc1nnc(-c2cccc(Cl)c2Cl)c(N)n1 , state the outcome it received in this test.
inactive

Give the logged outcome of this assay for the following molecule: Nc1ccn([C@H]2CC[C@@H](CO)O2)c(=O)n1
inactive

What classification did Cn1c(=O)c2c(ncn2C)n(C)c1=O end up with in this test?
inactive

State the result this test recorded for O=C1Cc2cc(CCN3CCN(c4nsc5ccccc45)CC3)c(Cl)cc2N1 .
inactive

Dear all, I need the recorded test outcome for CC12CC3CC(C)(C1)CC(N)(C3)C2 , thank you.
active

Please let me know the test result on file for Cn1c(=O)c2[nH]cnc2n(C)c1=O .
inactive

Given Nc1c2c(nc3ccccc13)CCCC2 , state the outcome it received in this test.
inactive

Could you please tell me the result logged for O=C(c1ccc(OCCN2CCCCC2)cc1)c1c(-c2ccc(O)cc2)sc2cc(O)ccc12 in this assay?
active

Look up the recorded call for CN1C(C(=O)Nc2ccccn2)=C(O)c2ccccc2S1(=O)=O in this test.
inactive

Just curious, what result did CCC1(C)CC(=O)NC1=O (configuration not stated) get here?
inactive

Please share the test call associated with CC[N+](CC)(CC)CCOc1cccc(OCC[N+](CC)(CC)CC)c1OCC[N+](CC)(CC)CC .
inactive

Which outcome was assigned to CN(CCOc1ccc(NS(C)(=O)=O)cc1)CCc1ccc(NS(C)(=O)=O)cc1 in this test?
inactive
